Where these numbers come from: the supplement of paper PMC12632987

# Test Target: GABARAP, O95166
# Sequence (O95166 whole entry, the tested form may be a part): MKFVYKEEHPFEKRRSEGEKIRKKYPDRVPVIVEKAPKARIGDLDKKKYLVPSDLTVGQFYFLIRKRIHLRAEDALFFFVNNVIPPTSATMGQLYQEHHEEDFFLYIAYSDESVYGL
# Measurement Description: median log2 fold change of GCK-ALFA target abundance (FLAG IP / Myc IP barcode read proportion) (log2 ratio); each designed protein is fused to an ALFA-tag nanobody in HEK293 cells to bring the named protein to FLAG-tagged glucokinase (GCK); Myc marks an untargeted standard; higher = target protein stabilised (more abundant)
# Conditions Used: target protein: 3xFLAG-MCP-GCK-ALFA reporter; HEK293 landing pad (RPLP)
Over roughly 4,500 sequences, “median log2 fold change of GCK-ALFA target abundance (FLAG IP / Myc IP barcode read proportion)” has its median near 0.078; the lowest 2% begin near -0.6. Shown is part of a subset that was picked to be rich in the lowest values.
Readout Kind: median log2 fold change
Please reply with the value in numeric form only.

Measured median log2 fold change of GBRAP_52_6294 (protein) SMEEVEKKAKEIVELVKEGKLEEAIELAKKFVEENSLEEALELGKLLIEKIEELTPEEAELMLEVIEALAEEIEKEFGAEEEADILEAEAAAAAYKVLQK : 0.0653

The reported median log2 fold change of the binder GBRAP_128_3161 (protein) AVEEAKKKTKELMEKIKNSSLEEVEKLAKELVEMMKTASDEEVEAMAEVILEELPKLSAEKLEILADVLEEKMPELSPFGQNQAADVLVEALNEAEELEE was 0.0696

Memo: GBRAP_53_6413 (protein) AEAEIAALRAEVKATARAAAAADEATLAALVAEIGALLAALKAAGMPDEELTALAEEVARTLRAAGAPDSALVALAGHLAALGLEEATAAVAEEAVEELE , reported median log2 fold change: 0.295

Consider GBRAP_184_5075 (protein) SVREETIRVENVEEARAKMAALAERVRDHRGDLVVLVEMPEADLEIMRAVLEGLAAILAAGYARRVTVGFDAEVTEEQVDEAVALADRLGVNVVLPLKEE . Its measured median log2 fold change is 0.0908
